# Measured On: Carbonic anhydrase 7 (Homo sapiens, UniProt P43166)
# Sequence (P43166 whole entry): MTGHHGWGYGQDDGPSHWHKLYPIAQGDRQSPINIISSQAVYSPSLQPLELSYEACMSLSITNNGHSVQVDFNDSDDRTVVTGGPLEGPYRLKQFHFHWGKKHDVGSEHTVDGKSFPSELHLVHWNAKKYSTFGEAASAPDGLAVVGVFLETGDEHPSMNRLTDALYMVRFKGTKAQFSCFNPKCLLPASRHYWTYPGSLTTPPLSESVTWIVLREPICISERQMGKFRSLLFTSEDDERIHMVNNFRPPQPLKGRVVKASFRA
# Assay Details: Inhibition of human recombinant carbonic anhydrase 7 preincubated for 15 mins at room temperature/6 hrs at 4 deg C by stopped-flow CO2 hydration assay
Assay Endpoint: pKi
Just so you know, pKi here is -log10 of the concentration in molar units; reply with that number alone.

Worked cases, pKi given:
[[record]]
compound = "COc1cc(-c2oc3cc(O)cc(O)c3c(=O)c2O)ccc1O"
measured_on = "Carbonic anhydrase 7 (Homo sapiens, UniProt P43166)"
result_value = 8.36

[[record]]
compound = "C[C@@H]1O[C@@H](Oc2c(-c3ccc(O)c(O)c3)oc3cc(O)cc(O)c3c2=O)[C@H](O)[C@H](O)[C@H]1O [QUERCETIN-3-O-RHAMNOSIDE]"
measured_on = "Carbonic anhydrase 7 (Homo sapiens, UniProt P43166)"
result_value = 8.41


Then this compound:
## Input Record request: pKi value, item O=c1c(O[C@@H]2O[C@H](CO)[C@@H](O)[C@H](O)[C@H]2O)c(-c2ccc(O)c(O)c2)oc2cc(O)cc(O)c12
## Output 8.42

====

# Measured On: UniProt P22748
# Assay Details: Inhibition of human recombinant carbonic anhydrase 4
Assay Endpoint: Ki (nM)
Return type: number; implicit unit nM.

## Input Form field: reported Ki of O=c1cc(-c2ccc(O)c(O)c2)oc2cc(O)cc(O)c12 [LUTEOLIN]
## Output 293

====

# Measured On: Carbonic anhydrase 7 (Homo sapiens, UniProt P43166)
# Assay Details: Inhibition of human recombinant carbonic anhydrase 7 preincubated for 15 mins at room temperature/6 hrs at 4 deg C by stopped-flow CO2 hydration assay
Assay Endpoint: pKi
// returns pKi (minus log10 of molar concentration), number only

Below, 5 molecules whose answers are already recorded.
[[record]]
molecule = "O=C(/C=C/c1ccc(O)cc1)OC[C@H]1O[C@@H](Oc2c(-c3ccc(O)cc3)oc3cc(O)cc(O)c3c2=O)[C@H](O)[C@@H](O)[C@@H]1O [TILIROSIDE]"
measured_on = "Carbonic anhydrase 7 (Homo sapiens, UniProt P43166)"
result_value = 8.34

[[record]]
molecule = "O=c1cc(-c2ccc(O)c(O)c2)oc2cc(O)cc(O)c12"
measured_on = "Carbonic anhydrase 7 (Homo sapiens, UniProt P43166)"
result_value = 8.33

[[record]]
molecule = "O=c1c(O)c(-c2ccccc2)oc2cc(O)cc(O)c12"
measured_on = "Carbonic anhydrase 7 (Homo sapiens, UniProt P43166)"
result_value = 7.61

[[record]]
molecule = "O=C1C[C@@H](c2ccc(O)c(O)c2)Oc2cc(O)cc(O)c21"
measured_on = "Carbonic anhydrase 7 (Homo sapiens, UniProt P43166)"
result_value = 8.37

[[record]]
molecule = "O=c1c(O[C@@H]2O[C@H](CO)[C@@H](O)[C@H](O)[C@H]2O)c(-c2ccc(O)cc2)oc2cc(O)cc(O)c12"
measured_on = "Carbonic anhydrase 7 (Homo sapiens, UniProt P43166)"
result_value = 6.37


## Input Entry under review: O=c1c(-c2ccc(O)cc2)coc2c([C@@H]3O[C@H](CO)[C@@H](O)[C@H](O)[C@H]3O)c(O)ccc12 . Reported pKi?
## Output 6.34

## Input Record request: pKi value, item CC(=O)O[C@@H]1[C@@H](OC(=O)/C=C/c2ccc(O)cc2)[C@H](Oc2c(-c3ccc(O)cc3)oc3cc(O)cc(O)c3c2=O)O[C@H](COC(=O)/C=C/c2ccc(O)cc2)[C@H]1OC(C)=O
## Output 7.58

====

# Measured On: Carbonic anhydrase 7 (Homo sapiens)
# Assay Details: Inhibition of human recombinant carbonic anhydrase 7 preincubated for 15 mins at room temperature/6 hrs at 4 deg C by stopped-flow CO2 hydration assay
pKi: −log10 of the molar value.
Threshold check on pKi: at or above 8 gives fulfilled, strictly below gives not fulfilled.

Consider the worked cases shown below.
[[record]]
smiles_input = "O=C(/C=C/c1ccc(O)c(O)c1/C=C/c1ccc(O)c(O)c1)O[C@H](Cc1ccc(O)c(O)c1)C(=O)O"
group = "not fulfilled"

[[record]]
smiles_input = "O=c1c(O)c(-c2ccc(O)cc2)oc2cc(O)cc(O)c12"
group = "not fulfilled"

[[record]]
smiles_input = "O=C(/C=C/c1ccc(O)c2c1[C@H](C(=O)O)[C@@H](c1ccc(O)c(O)c1)O2)O[C@H](Cc1ccc(O)c(O)c1)C(=O)O"
group = "not fulfilled"

[[record]]
smiles_input = "O=c1c(-c2ccc(O)cc2)coc2cc(O)ccc12"
group = "fulfilled"

[[record]]
smiles_input = "O=C1C[C@@H](c2ccc(O)cc2)Oc2cc(O)cc(O)c21"
group = "fulfilled"


## Input # bool: pKi of O=C(/C=C/c1ccc(O)cc1)OC[C@H]1O[C@@H](Oc2c(-c3ccc(O)cc3)oc3cc(O)cc(O)c3c2=O)[C@H](OC(=O)/C=C/c2ccc(O)cc2)[C@@H](O)[C@@H]1O >= 8
## Output fulfilled

## Input Can O=c1cc(-c2ccccc2)oc2cc(O)cc(O)c12 be said to have pKi at or above 8?
## Output not fulfilled

## Input Is it the case that COc1ccc([C@@H]2CC(=O)c3c(O)cc(O)cc3O2)cc1O has pKi reaching or exceeding 8?
## Output fulfilled

## Input Threshold query (pKi >= 8) on COc1ccc(-c2coc3cc(O)cc(O)c3c2=O)cc1
## Output not fulfilled

====

# Measured On: Carbonic anhydrase 4 (Homo sapiens, UniProt P22748)
# Sequence (P22748 whole entry): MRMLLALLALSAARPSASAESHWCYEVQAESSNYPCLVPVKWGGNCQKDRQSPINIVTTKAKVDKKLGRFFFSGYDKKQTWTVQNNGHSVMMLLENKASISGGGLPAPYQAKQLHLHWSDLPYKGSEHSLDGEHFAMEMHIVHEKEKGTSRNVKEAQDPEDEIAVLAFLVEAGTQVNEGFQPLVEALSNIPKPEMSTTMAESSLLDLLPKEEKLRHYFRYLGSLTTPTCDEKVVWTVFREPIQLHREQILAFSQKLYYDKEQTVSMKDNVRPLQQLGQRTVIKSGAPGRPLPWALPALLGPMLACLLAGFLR
# Assay Details: Inhibition of human recombinant carbonic anhydrase 4 preincubated for 15 mins at room temperature/6 hrs at 4 deg C by stopped-flow CO2 hydration assay
Assay Endpoint: pKi
Note: pKi values are expressed as the negative base-10 logarithm of concentration in M.

Examples with their reported pKi follow.
[[record]]
molecule = "CC(=O)O[C@@H]1[C@@H](OC(=O)/C=C/c2ccc(O)cc2)[C@H](Oc2c(-c3ccc(O)cc3)oc3cc(O)cc(O)c3c2=O)O[C@H](COC(=O)/C=C/c2ccc(O)cc2)[C@H]1OC(C)=O"
assay_endpoint = "pKi"
result_value = 7.21

[[record]]
molecule = "COc1ccc([C@@H]2CC(=O)c3c(O)cc(O)cc3O2)cc1O"
assay_endpoint = "pKi"
result_value = 6.99

[[record]]
molecule = "O=c1c(-c2ccc(O)cc2)coc2cc(O)ccc12"
assay_endpoint = "pKi"
result_value = 6.14

[[record]]
molecule = "O=c1cc(-c2ccccc2)oc2cc(O)cc(O)c12"
assay_endpoint = "pKi"
result_value = 6.27

[[record]]
molecule = "O=C(/C=C/c1ccc(O)cc1)OC[C@H]1O[C@@H](Oc2c(-c3ccc(O)cc3)oc3cc(O)cc(O)c3c2=O)[C@H](OC(=O)/C=C/c2ccc(O)cc2)[C@@H](O)[C@@H]1O"
assay_endpoint = "pKi"
result_value = 6.46


## Input Entry under review: O=C(/C=C/c1ccc(O)cc1)OC[C@H]1O[C@@H](Oc2c(-c3ccc(O)cc3)oc3cc(O)cc(O)c3c2=O)[C@H](O)[C@@H](O)[C@@H]1O [TILIROSIDE] . Reported pKi?
## Output 5.26
